Tested on: Schistosoma mansoni schistosomula (Liberian)
EXPERIMENT SUMMARY: drug effect (1 - score/DMSO control score) (fraction); higher = more antischistosomal effect, active = 0.5 or more; extreme values may be limits of the assay
TEST CONDITIONS: 48 h; 10 µM
Give one outcome, nothing more. List: 1.0 = active, 0.0 = inactive

Worked cases, answers included:
{"MOLECULE": "C[C@H](c1ccc2c(c1)CCCC2)N(C)c1ncc2c(N)nc(N)nc2n1", "CLASS": 0.0}
{"MOLECULE": "O=C(NC1CC1)c1ccc(CSCc2ccccc2Cl)o1", "CLASS": 0.0}
{"MOLECULE": "CC1(COc2ccc(N3CCC(Oc4ccc(OC(F)(F)F)cc4)CC3)cc2)Cn2cc([N+](=O)[O-])nc2O1 (stereo not given)", "CLASS": 0.0}
{"MOLECULE": "O=C(c1ccc(F)cc1)N(CCNc1ccccc1)c1ccccc1", "CLASS": 0.0}
{"MOLECULE": "CCN(CC)S(=O)(=O)c1ccc(Cl)c(C(=O)Nc2ccc3nc(C)sc3c2)c1", "CLASS": 0.0}

Query block: Just curious, what result did COc1ccc(C2(C(=O)Nc3ccc(Br)cc3)CCCC2)cc1 get here?
Result block: 0.0

Query block: Just curious, what result did O=C(OCc1ccccc1)N1CCC(c2cc(-c3ccncc3)c(-c3ccc(F)cc3)[nH]2)CC1 get here?
Result block: 0.0

Query block: Just curious, what result did O=C(Nc1ccc2c(c1)B(O)OC2)c1ccccc1C(F)(F)F get here?
Result block: 0.0

Query block: Just curious, what result did COc1cccc(OCC(=O)c2ccc(Br)cc2)c1 get here?
Result block: 0.0

Query block: Just curious, what result did Cc1nc(-c2cccc(NCc3ccccc3)c2)[nH]c1C get here?
Result block: 0.0

Query block: Just curious, what result did OCc1ccc(-c2cncc(Nc3cccc(Cl)c3)c2)cc1 get here?
Result block: 0.0

Query block: Just curious, what result did Cc1cc(Cl)c(S(=O)(=O)N2CCCC2)cc1OCC(=O)NC1CCCCC1 get here?
Result block: 0.0

Query block: Just curious, what result did Cc1cc(O)nc(-n2nc(C)cc2C)n1 get here?
Result block: 0.0

Query block: Just curious, what result did O=C(Nc1ccccc1-c1nc2c(C(=O)O)cccc2o1)c1ccccc1 get here?
Result block: 0.0

Query block: Just curious, what result did CC(C)(C)OC(=O)N1CCN(c2cc(-c3ccc(Oc4ccccc4)cc3)n[nH]2)CC1 get here?
Result block: 0.0
